# Test system: PPARγ
# test.protocol: PPARγ mRNA expression in adipocytes (real-time PCR)
# Format: cell-based, human
# condition.details: Table 17; differentiating adipocytes; control = treatment with ISIS 342673
In the oligonucleotide strings, read from the 5' end, every base follows the letter of its sugar. An asterisk marks phosphorothioate; unmarked linkages are phosphodiester. Other units and linkages are bracketed, terminal groups are in braces. A string of capitals states the bases alone. e = 2'-O-(2-methoxyethyl) (MOE); [5mC] = 5-methylcytosine
metric: PPAR gamma mRNA

1. 328120 (antisense eA*eA*eG*eA*eA*eG*eG*eA*eA*eG*eG*eA*eG*eG*eG*eA*eA*eA*eG*e[5mC]*eA) [compound 328120]	70.5 percentage of control
2. 342673 (antisense eA*eG*eA*e[5mC]*eT*eA*eG*e[5mC]*eG*eG*eT*eA*eT*e[5mC]*eT*eT*eT*eA*eT*e[5mC]*e[5mC]*e[5mC]) [compound 342673]	100.0 percentage of control
3. 328126 (antisense e[5mC]*e[5mC]*eA*eA*eG*eT*eG*eT*eT*eA*eG*eA*eG*e[5mC]*eA*eA*eG*eA*eT*e[5mC]*eA) [compound 328126]	75.0 percentage of control
4. 328136 (eA*eA*e[5mC]*eT*eA*e[5mC]*eT*eT*e[5mC]*e[5mC]*eA*eG*eA*eG*e[5mC]*eA*eG*eG*eT*eG*eA; anti-miR) [compound 328136]	72.7 percentage of control
5. 328138 (eG*eA*eG*e[5mC]*eT*eG*e[5mC]*eT*e[5mC]*eA*eG*e[5mC]*eT*eG*eG*e[5mC]*e[5mC]*eA*eT*e[5mC]*eA; anti-miR) [compound 328138]	83.8 percentage of control

====

# Test system: HeLa cells
# test.protocol: Cell cycle assay in HeLa cells
# Format: cell-based, human
# condition.details: HeLa cells, 150 nM oligomeric compound, 24 hours, relative to untreated control (UTC = 100)
In the oligonucleotide strings, read from the 5' end, every base follows the letter of its sugar. An asterisk marks phosphorothioate; unmarked linkages are phosphodiester. Other units and linkages are bracketed, terminal groups are in braces. A string of capitals states the bases alone. e = 2'-O-(2-methoxyethyl) (MOE); [5mC] = 5-methylcytosine; d = 2'-deoxy (DNA)
Form field: % cells in cell cycle phase S (one value per entry).
metric: % cells in cell cycle phase S (%)

1. 327944 (antisense eA*eA*eA*eG*eT*eG*eT*e[5mC]*eA*eG*eA*eT*eA*e[5mC]*eG*eG*eT*eG*eT*eG*eG) [compound 327944]	110
2. 328424 (antisense eA*eG*eG*eA*eA*dG*d[5mC]*dA*d[5mC]*dA*d[5mC]*dA*dT*dT*dA*eT*e[5mC]*eA*e[5mC]*eA) [compound 328424]	85
3. 328676 (eA*e[5mC]*e[5mC]*eT*e[5mC]*d[5mC]*d[5mC]*dA*dG*d[5mC]*d[5mC]*dA*dA*dT*d[5mC]*e[5mC]*eA*eT*eG*eT; antisense) [compound 328676]	86
4. 338833 (antisense TCGTGCACCTGAGGAGTCTG; all 2'-MOE, all phosphorothioate, methylation of C not given here) [compound 338833]	56
5. 328687 (eG*e[5mC]*eT*eT*e[5mC]*d[5mC]*d[5mC]*dA*dG*d[5mC]*dG*dG*d[5mC]*d[5mC]*dT*eA*eT*eA*eG*eT; antisense) [compound 328687]	98
6. 340350 (antisense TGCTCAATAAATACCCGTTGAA; all 2'-MOE, all phosphorothioate, methylation of C not given here) [compound 340350]	54
7. 345395 (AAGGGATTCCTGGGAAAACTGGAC; sugars from the 5' end e5 d10 e9, all phosphorothioate, methylation of C not given here) [compound 345395]	82
8. 328674 (eT*eG*e[5mC]*e[5mC]*e[5mC]*dT*dG*d[5mC]*dT*d[5mC]*dA*dG*dA*dG*d[5mC]*e[5mC]*e[5mC]*eT*eA*eG; antisense) [compound 328674]	93
9. 328374 (eA*eG*e[5mC]*eT*eT*dT*dA*dG*d[5mC]*dT*dG*dG*dG*dT*d[5mC]*eA*eG*eG*eA*e[5mC]; antisense) [compound 328374]	115
10. 338741 (antisense GCTTCACAATTAGACCATCC; all 2'-MOE, all phosphorothioate, methylation of C not given here) [compound 338741]	73
11. 327906 (antisense eT*e[5mC]*eA*eT*eA*eG*e[5mC]*e[5mC]*e[5mC]*eT*eG*eT*eA*e[5mC]*eA*eA*eT*eG*e[5mC]*eT*eG*e[5mC]*eT) [compound 327906]	47
12. 327904 (antisense eA*e[5mC]*eT*e[5mC]*eA*e[5mC]*e[5mC]*eG*eA*e[5mC]*eA*eG*e[5mC]*eG*eT*eT*eG*eA*eA*eT*eG*eT*eT) [compound 327904]	102
13. 338666 (antisense TCACGTGGAGAGGAGTTAAA; all 2'-MOE, all phosphorothioate, methylation of C not given here) [compound 338666]	63
